# Tested on: Trypanosoma brucei brucei
# measurementProtocol: Inhibition of Trypanosoma brucei brucei 427 bloodstream forms topoisomerase 1B in assessed as formation of enzyme-DNA cleavable complex at 5 uM
Hi there, I'd appreciate the recorded inhibition for every entry that follows.
Answer with the number, then the unit.

                                smilesinput                 testtarget  quantityname  reported
0  COC(=O)c1ccc2c(c1)C(=O)c1c-2n(CCCN)c(=O)c2cc(OC)c(OC)cc12  Trypanosoma brucei brucei    inhibition       12%
1  COc1ccc2c(c1)C(=O)c1c-2n(CCCN)c(=O)c2cc(OC)c(OC)cc12  Trypanosoma brucei brucei    inhibition        3%
2  COc1cc2c3c(n(CCCN)c(=O)c2cc1OC)-c1ccc(C#N)cc1C3=O  Trypanosoma brucei brucei    inhibition        3%
3  COc1cc2c3c(n(CCCNCCCCN)c(=O)c2cc1OC)-c1cc2c(cc1C3=O)OCO2  Trypanosoma brucei brucei    inhibition        7%

Below are 4 compounds. Give each one its inhibition.
1. COc1cc2c3c(n(CCCN)c(=O)c2cc1OC)-c1ccccc1C3=O
2. COc1cc2c3c(n(CCCNCCCNCCCNCCCN)c(=O)c2cc1OC)-c1cc2c(cc1C3=O)OCO2
3. COc1cc2c3c(n(CCCNCCNCCCN)c(=O)c2cc1OC)-c1cc2c(cc1C3=O)OCO2
4. COc1cc2c3c(n(CCCN)c(=O)c2cc1OC)-c1cc2c(cc1C3=O)OCO2

## Output
["4%", "10%", "11%", "4%"]
